All values here come from PubChem BioAssay (NCI).

Test system: HOP-62 NSCLC
Experiment: NCI tumour cell line growth inhibition, 48 h
Would you kindly list TGI for each of these compounds?

Please indicate TGI recorded for C[C@@H](Oc1cc(-n2cnc3ccc(OC[C@@H](O)CO)cc32)sc1C(N)=O)c1ccccc1Cl
> 25 µM

Return reported TGI. Input compound: Nc1c(F)cc(-c2nc3cc(F)ccc3[se]2)cc1Br
> 100 µM

Give TGI for CCOC(=O)C1(Br)S(=O)(=O)OCCOS1(=O)=O
> 100 µM

Hello, please tell me recorded TGI for this one: CC[C@@]1(CCC(=O)NCCc2c[nH]c3ccccc23)CCC(=O)N2CCc3c([nH]c4ccccc34)[C@H]21
> 100 µM

Answer with the recorded TGI for the compound listed here: CCN=C(C#N)NCC
> 100 µM

Find the measured TGI of N#Cc1c(O)c2ccccc2[nH]c1=O and report it.
> 100 µM

Output TGI of COc1cc(/C=C2\C[C@H]3[C@@H]4CC=C5C[C@@H](OC(C)=O)CC[C@]5(C)[C@H]4CC[C@]3(C)[C@H]2OC(C)=O)ccc1OCCN1CCCC1
20.5 µM

Quick one: give measured TGI for COc1cc(C=O)cc(O)c1O
> 100 µM

Annotate the compound O=[N+]([O-])c1cc2c([N+](=O)[O-])cccc2o1 with its measured TGI.
37.2 µM

Consider the compound O=C(C/C=C/c1ccccc1)c1ccccc1 . State its measured TGI.
73.7 µM

Provide measured TGI value, entry: CCCCCCCCOC(=O)c1cc([N+](=O)[O-])c(Sc2ncnc3nc[nH]c23)c([N+](=O)[O-])c1
21.8 µM

----------
System: EKVX NSCLC
Assay: NCI tumour cell line growth inhibition, 48 h
Exercise: for every item that follows, state its recorded TGI.

Entry N#Cc1ccc(C2NN=CC23C(=O)c2ccccc2OC3c2ccccc2)cc1 (configuration not stated) needs its TGI filled in; supply it.
84.8 µM

Give the measured TGI for COc1ccc(/C(=N\Nc2ccccn2)c2ccccn2)cc1
13.6 µM

Read the entry C1C[OH+]CC[OH+]CCNCC[OH+]CC[OH+]CCN1.Cl.[Cl-].[Pt+4] and write its reported TGI.
> 100 µM

Please look at this molecule and report its TGI: COC[C@H](C)N=CN1CCc2ccccc2C1(Cc1ccccc1)Cc1ccccc1
92.6 µM

Given the molecule C#CC1NC(=O)C1N(CC)CC (configuration not stated) , write its reported TGI.
> 100 µM

Recall and state the measured TGI for CCOC(=O)c1cccnc1C(OC(C)=O)OC(C)=O .
> 100 µM

Consider the molecule CSCCC(C(=O)O)N(CC1(O)OCC(O)C(O)C1O)N=O (configuration not stated) . State its measured TGI.
> 100 µM

----------
Can you tell me TGI for the items I'm about to list?
System: HCT-15 colon
Test: NCI tumour cell line growth inhibition, 48 h

State, in one line, measured TGI of CCOC1CC2OC(=O)C1C=C2C(=O)OC (stereo unspecified)
> 100 µM

Quote TGI reported for O=c1oc2ccc3ccccc3c2cc1-c1nc2ccc([N+](=O)[O-])cc2o1 please.
> 100 µM

Using known records, supply TGI for COc1cc2c[n+](C)c3c4cc(OC)c(OC)cc4ccc3c2cc1OC
> 100 µM

Could you please provide reported TGI for O=C1NC(c2cccc(OCc3ccccc3)c2)Nc2ccccc21 (stereo unspecified) ? Thanks!
0.702 µM

Give a short answer stating reported TGI for CC1CN=C(Nc2ccc(F)c(Cl)c2)S1 (stereo unspecified) .
> 100 µM

Identify the reported TGI for the following entry. O=c1cc(-c2ccccc2)[nH]c2cc(Cl)ccc12
15.8 µM

Identify the reported TGI for the following entry. CC1(C)N=C(N)N=C(N)N1c1cccc(Br)c1
> 100 µM

Output measured TGI for this item: O=[N+]([O-])C(=C/c1cccs1)/C(=C\c1cccs1)[N+](=O)[O-]
0.614 µM

Item Cc1nccc2c3ccc(OCc4cn(-c5ccc(Cl)cc5)nn4)cc3n(CC(C)C)c12 : provide TGI
21.5 µM

Return value of TGI for input O=C(O)CCC(C(=O)O)N1C(=O)C2C3CCC(C3)C2C1=O (stereo unspecified) , no commentary.
> 100 µM

Report measured TGI; entry is COC(=O)C(=O)C(C(=O)C(=O)Nc1cc(C)ccc1C)c1nc2ccc(C(=O)c3ccccc3)cc2[nH]c1=O (stereo unspecified)
> 100 µM

----------
Test system: T-47D breast
Assay: NCI tumour cell line growth inhibition, 48 h
attributeMeasured: TGI (µM)
State the answer as a number, implicitly in µM.

Consider the compound CC1=NN(c2nc(N)nc(/C(C#N)=C\c3cccc([N+](=O)[O-])c3)n2)C(C)(C)C1 and give its recorded TGI.
64.8

Give recorded TGI. CCCCCCCCOC(=O)c1cc([N+](=O)[O-])c(Sc2ncnc3nc[nH]c23)c([N+](=O)[O-])c1
3.31

Specify TGI for Nc1ccc(Sc2c3ccccc3nc3ccccc23)cc1 and stop.
5.6

----------
Test system: ACHN renal
Assay: NCI tumour cell line growth inhibition, 48 h
Please provide measured TGI for the entries that follow.

Identify TGI associated with the molecule CCOC(=O)C(=O)Nc1ccccc1C(C)C
> 100 µM

Supply reported TGI belonging to this molecule: Cc1cc(=O)oc2cc(OC/C=C3\CCC(=O)O3)ccc12
15.4 µM

Identify measured TGI associated with Cc1nccc2c3ccc(OCc4cn(-c5ccc(Cl)cc5)nn4)cc3n(CC(C)C)c12
9.59 µM

Please indicate TGI recorded for COc1ccc(N(C)c2nc(Cl)nc3cnn(C)c23)cc1
> 100 µM

Return the recorded TGI value; entry: Cn1c(N=P(c2ccccc2)(c2ccccc2)c2ccccc2)c([N+](=O)[O-])c(=O)n(C)c1=O
> 100 µM

Provide only the value of recorded TGI for N#Cc1c(N2CCN(c3ccc([N+](=O)[O-])cc3)CC2)[n+](=O)c2ccccc2n1[O-]
> 100 µM

State its TGI: O=C1c2ccccc2C(=O)c2c(NCCCN3CCOCC3)ccc(NCCCN3CCOCC3)c21
19.5 µM

Kindly indicate its recorded TGI. Item: CCOC(=O)C(OP(=O)(OCC)OCC)C(F)(F)F (stereo not given)
> 100 µM

Specify measured TGI for COC1/C=C/C(C)C(C(C)C(OC)C(C)CCC(=O)C(C)C(CC(=O)O)OC)OC(=O)/C=C/C=C(\C)CC(OC)CC2=CC(=O)O[C@H](C2)C(C)C(OC)CC(OC)/C=C/C(C)C(OC)C1 (stereo not given in full) .
> 4.35 µM

Give the measured TGI for COc1cnc2c(c1)C(=O)c1c-2n(CCCN2CCNCC2)c(=O)c2cc([N+](=O)[O-])ccc12
1.22 µM

Provide one value: measured TGI of CCN(CC)CCNc1ccc2nc(C)n3c4ccc(O)cc4c(=O)c1c23
3.78 µM

Determine from records and report TGI for C[CH2][Sn]([CH2]C)([O]C(=O)c1ccc(OC)c(OC)c1OC)[O]C(=O)c1ccc(OC)c(OC)c1OC
> 78.9 µM

Output measured TGI for this item: N#Cc1c(O)c2ccccc2[nH]c1=O
> 100 µM

For the molecule CN1CCN(Cc2cc(NC(=O)c3cccc(C#Cc4cccc5[nH]nc(N)c45)c3)cc(C(F)(F)F)c2)CC1 , report TGI.
3.02 µM

Tell me TGI reported for O=c1c2cc(I)ccc2nc(-c2cccs2)n1/N=C/c1ccccc1
> 100 µM

Supply reported TGI belonging to this molecule: O=c1c2c(c1=O)-c1ccccc1CN2
> 100 µM

Given O=[N+]([O-])C(=C/c1cccs1)/C(=C\c1cccs1)[N+](=O)[O-] , respond with its TGI.
2.68 µM

In one line, give reported TGI of the entry C1CN2CCNCCN(CCN1)CC2 .
> 100 µM

Give the reported value of TGI for this record: CN(C(=O)c1ccco1)C(=S)N1CCN(c2ccccn2)CC1
> 100 µM

Name the recorded TGI of the molecule listed here: C=CCc1c(O)c(C(=O)/C=C/c2ccccc2)c(OC)c2ccoc12
13.8 µM

Given O=c1c2c(F)c(F)c(F)c(F)c2sc2nccn12 , respond with its TGI.
30 µM

Give the value of TGI reported for the following: COC(=O)C(=O)C(C(=O)C(=O)Nc1cc(C)ccc1C)c1nc2ccc(C(=O)c3ccccc3)cc2[nH]c1=O (stereo not given)
> 100 µM

Let me know recorded TGI for C#CC1NC(=O)C1N(CC)CC (stereo not given) , thanks.
> 100 µM

State, in one line, measured TGI of O=C(O[C@H]1CCN2C[C@H]3C[C@H](CN4C(=O)CCC[C@H]34)[C@@H]2C1)c1ccc(O)cc1
> 100 µM

Identify measured TGI corresponding to COc1ccc(/C(=N\Nc2ccccn2)c2ccccn2)cc1
2.81 µM

Supply recorded TGI for CC1=NN(c2nc(N)nc(/C(C#N)=C\c3cccc([N+](=O)[O-])c3)n2)C(C)(C)C1 here.
> 51.4 µM

Answer with reported TGI of Cc1ccc2nc(NC(=O)/C(=N\NC(=S)NN)C3C(=O)NC(=S)NC3=O)sc2c1
> 100 µM

Report TGI, nothing else, for this molecule: O=P(O)(CN1CCN(CP(=O)(O)c2ccccc2)CCN(CP(=O)(O)c2ccccc2)CC1)c1ccccc1
> 100 µM

Retrieve TGI measured for CCCCCCCCOC(=O)c1cc([N+](=O)[O-])c(Sc2ncnc3nc[nH]c23)c([N+](=O)[O-])c1 and print it.
10.2 µM

For the molecule CC1=C([Se]CC(OC(=O)[C@@H](CO)NC(=O)OC(C)(C)C)C(=O)NCCCCCC(=O)OCc2ccccc2)C(=O)c2ccccc2C1=O (stereo not given in full) , give its measured TGI value.
3.07 µM

Specify TGI for COc1cc(C2c3c(ccc4ccccc34)C(=O)C3CCC(=O)N32)cc(OC)c1O (stereo not given) and stop.
> 25 µM

Provide TGI value for the following molecule: COc1cc(/C=C2/C(=O)N(C(=O)OCc3ccccc3)C(Cc3cc(OC)c(OC)c(C)c3OC)C(=O)N2Cc2ccccc2)c(OC)c(C)c1OC (stereo not given)
> 100 µM

Respond only with TGI recorded for O=C1NC(c2cccc(OCc3ccccc3)c2)Nc2ccccc21 (stereo not given)
28.7 µM

Please look at this molecule and report its TGI: CCCCCC[C@H](C)NC(=O)c1ccc(Nc2nc3ccccc3c3occc23)cc1
40 µM

Please look at this molecule and report its TGI: Cc1ccc(NC(=O)OCC(COc2ccc(Cl)cc2Cl)OC(=O)Nc2ccc(C)cc2)cc1 (stereo not given)
> 100 µM

Using known records, supply TGI for CN(C)c1ccc2nc(CC(O)(C(F)(F)F)C(F)(F)F)ccc2c1
> 10 µM

Return TGI (reported value) for this molecule: Cc1ccccc1C1CC(c2ccccc2)=NO1 (stereo not given)
> 100 µM

Please look at this molecule and report its TGI: COc1ccc(CCc2cc(OC)c(O)c(OC)c2)cc1
> 100 µM

For [N-]=[N+]=CC(=O)CCC(=O)N(c1ccccc1)c1ccccc1 , write its TGI.
> 10 µM

Let me know recorded TGI for c1ccc2c(NCCCCCCNc3cccc4ccccc34)cccc2c1 , thanks.
> 100 µM
